# system.tested: pooled human IgG (human IgG1,2,3 and 4)
Think of 200 ng/µL as a floor: if Enzyme activity endpoint: IgG stands on it or above, it is Met; beneath it, Not met.

PRT-653 (protein) MQITSVWTKGVTPLTPEQFRYNNEDVIHAPYLAHQGWYDITKAFDGKDNLLCGAATAGNMLHWWFDQNKTEIEAYLSKHPEKQKIIFNNQELFDLKAAIDTKDSQTNSQLFNYFRDKAFPNLSARQLGVMPDLVLDMFINGYYLNVFKTQSTDVNRPYQDKDKRGGIFDAVFTRGDQTTLLTARHDLKNKGLNDISTIIKQELTEGRALALSHTYGNVRSSHVINLWGADFNAEGNLEAIYVTDSDANASIGMKKYFVGINAHGHVAISAKKIEGENVGAQVLGLFTLSSGKDIWQKLSLEHHHHHH :: Met
PRT-672 (protein) MQITSVWTKGVTPPTPEQFTYQNEDVFHAPYIANQGWYDITKTFNGKDNLLCGAATAGNMLHWWFDQNKTEIENYLKKHPEKQKIIFNNQEMFDLRKAINTKDSQTNSALFEYFRDKAFPNLSARQLGVMPDHVLDMFINGYYLNVTKTQSTDVNRPYQTKDKRGGIFDHVFTRGDQSKLLTARHDLKNKTLNEISDLIKQELTEGKALALSHTYANVRINHVINLWGADFDAEGNLEAIYVTDSDSNASIGMKKYFVGVNSSGKVAISAKKIEDDNIGAQVLGLFTLSSGQDIWEQLSLEHHHHHH :: Not met
PRT-570 (protein) MANQEIRYSEATPSHITSVWTKGVTPPEQFIQNEDVLHAPYIANQGWYDITKTFNGKDDLLCGAATAGNMLHWWFDQNKEQIEAYLKKHPEKQKINFNGEQMFDVKEAIDTKDSQTDSALFNYFKDKAFPYLSTKHLGVFPDHVIDMFINGYRLSLTNHGPTPVKEQTKDPRGGIFDAVFTRGDQSKLLTSRHDFKEKTLKEISQLIKQELTEGKALGLSHTYANVRINHVINLWGADFNAEGNLEAIYVTDSDSNASIGMKKYYVGVNSAGKVAISAKEIEGDNIGAQVLGLFTLSTGQDIWQQTNLEHHHHHH :: Not met
PRT-648 (protein) MQITSVWTKGVTPLTPEQFRYNNEDVIHAPYLAHQGWYDITKAFDGKDNLLCGAATAGNMLHWWFDQNKTEIEAYLSKHPEKQKIIFNNQYLFDLKAAIDTKDSQTNSQLFNYFRDKAFGNLSARQLGVMPDLVLDMFINGYYLNVNKTQSTDVNRPYQKPDKRGGIFDAVFTRGDQTTLLTARHDLKNKGLNDISTIIKQELTEGRALALSHTYANVSISHVINLWGADFNAEGNLEAIYVTDSDANASIGMKKYFVGINAHGHVAISAKKIEGENIGAQVLGLFTLSSGKDIWQKLSLEHHHHHH :: Met
PRT-656 (protein) MQITSVWTKGVTPLTPEQFRYNNEDVIHAPYLAHQGWYDITKAFDGKDNLLCGAATAGNMLHWWFDQNKTEIEAYLSKHPEKQKIIFNNQELFDLKRAINDKDSQQNSELFNYFRDKAFPNLSARQLGVMPDLVLDMFINGYYLNVFKTQSTDVNRPYQDKDKRGGIFDAVFTRGDQTTLLTARHDLKNKGLNDISTIIKQELTEGRALALSHTYANVSISHVINLWGADFNAEGNLEAIYVTDSDANASIGMKKYFVGINAHGHVAISAKKIEGENIGAQVLGLFTLSSGKDIWQKLSLEHHHHHH :: Not met
PRT-683 (protein) MQITSVWTKGVTPLTPEQFRYNNEDVIHAPYLAHQGWYDITKAFNGKDNLLCGAATAGNMLHWWFDQNKEEIEAYLKKHPEKQKIIFNNQELFDLRKAINTKDSQTNSQLFNYFRDKAFPNLSARQLGVMPDLVLDMFINGYYLNVFKTQSTDVNRPYQDKDKRGGIFDHVFTRGDQTTLLTARHDLKNKTLNDISQIIKQELQEGKALALSHTYANVSISHVINLWGADFNAEGNLEAIYVTDSDANASIGMKKYFVGKNAHGHVAISAKKIEGENIGAQVLGLFTLSSGKEIWQKLSLEHHHHHH :: Not met

For this protein, is measured Enzyme activity endpoint: IgG 200 ng/µL or higher? PRT-675 (protein) MQITSVWTKGVTPPTMDDFTINGEDVFHAPYVANQGWYDITKTFNGKDDLLCGAATAGNMLHWWFDQNKEQIERYLKKHPEKQKIIFNNQEMFDLKEAINTKDSQTDSKLFNYFRDKAFPNLSARQLGVMPDHVLDMFINGYYLNLTKTQSTDVNRPEDTKDLRGGIFDHVFTRGDQSKLLTARHDLKNKTLKEISDLIKQELTEGKALGLSHTYANVRISHVINLWGADFDAEGNLEAIYVTDSDSNASIGMKKYYVGVNSAGKVAISAKKIEGDNIGAQVLGLYTLSTGKDIWQKLSLEHHHHHH Met

In plain terms: is recorded Enzyme activity endpoint: IgG at least 200 ng/µL for PRT-695 (protein) MTITTVWTKGVTPPTPEDFRYNNEDVLHAPYVPNQGWYDITKTFDGKDNLLCGAATAGNMLHWWFDQNKEEIERYLKKYPEKQKIIFNNQELFDVRAAINTKDSQTNSKLFNYFRDKAFPNLSARQLGVMPDLVLDMFINGYYLNLGKTQSTDVNRPYQDRDKRGGIFDAVFNRGDQTTLLTARHDLKNKGLNEISDLIKQELSSGKALALSHTYANVRINHVINLWGADFDAEGNLIAIYVTDSDANASIGMKKYYVGVNANGKVAISAKKIEGDNIGAQVLGLFTLSTGQDIWQKLSLEHHHHHH ? Not met

Attribution: patent US20250027068
